Reference source for all entries: PubChem BioAssay (Tox21)

test: A CellTox Green Cytotoxicity Assay to monitor cytotoxicity in HepG2 cells - 16 hour (AID 1224876); conditions: CellTox Green fluorescence; series mostly up to 76.8 µM; also: nearly all actives have a fitted effect of over 45% in size
Records with an inconclusive call do not appear. The source made the active and inactive calls. Calls follow the shape of the dose curve; as a rule, active = well fitted activation curve with a large enough effect in the repeat runs; inconclusive = weak or mixed curves; inactive = flat fitted curve, though single readings scatter.
Give one outcome, nothing more. List: Y (active), N (inactive)

Example cases with answers are listed next.
O=CC=C(c1ccccc1)c1ccccc1 ... N
CCCC(=O)OC[C@@H](OC(=O)CCC)[C@@H](OC(=O)CCC)[C@H](Cn1c2nc(=O)[nH]c(=O)c-2nc2cc(C)c(C)cc21)OC(=O)CCC ... Y
CCC1OCC(COc2ccc(Oc3ccccc3)cc2)O1 (centres undefined) ... N
Cc1cccc2c1cc1ccc3cccc4ccc2c1c34 ... N
CN(C)c1ccc(C2(c3ccc(N(C)C)cc3)OC(=O)c3cc(N(C)C)ccc32)cc1 ... N
OCc1c[nH]c2ccccc12 ... N

Incoming: Write down the call the test reported for this compound. Item: CS(=O)(=O)CCNCc1ccc(-c2ccc3ncnc(Nc4ccc(OCc5cccc(F)c5)c(Cl)c4)c3c2)o1
Outgoing: N

Incoming: Write down the call the test reported for this compound. Item: CCCCN(CCCC)C(=O)N(CCCC)CCCC
Outgoing: N

Incoming: Write down the call the test reported for this compound. Item: O=S1(=O)CC(Cl)(Cl)C(Cl)(Cl)C1
Outgoing: Y

###

test: qHTS assay to identify small molecule antagonists of the retinoic acid receptor (RAR) signaling pathway (AID 1159552; also: nearly all actives have a fitted effect of over 50% in size); settings: C3RL4 RARE luciferase reporter, retinol-stimulated, 6 h; series mostly up to 92.4 µM
Results filed as inconclusive are left out. The source made the active and inactive calls. Calls follow the shape of the dose curve; as a rule, active = well fitted inhibition curve with a large enough effect in the repeat runs; inconclusive = weak or mixed curves, or effect the other way; inactive = no such curve, though single readings can be large or run the other way.
Give one outcome, nothing more. List: 1 (active), -1 (inactive)

CC(=O)SC[C@@H](Cc1ccccc1)C(=O)NCC(=O)OCc1ccccc1 ... -1
Oc1c(Cl)cc(Cl)c2cccnc12 ... -1
CCCCCOc1ccccc1/C(=C\SC)n1ccnc1 ... -1
O=c1cc(-c2ccc(O)cc2)oc2cc(O)cc(O)c12 ... -1
Cc1ccc(O)c2ncccc12 ... -1

Incoming: Write down the call the test reported for this molecule. Item: O=C1Cc2cc(CCN3CCN(c4nsc5ccccc45)CC3)c(Cl)cc2N1
Outgoing: -1

Incoming: Write down the call the test reported for this molecule. Item: CCOC(=O)O[C@H](C)OC(=O)c1ccc2c(c1)cc(C(=O)NC1CCN(C(C)C)CC1)n2Cc1cc(-c2ccc(Cl)s2)on1
Outgoing: 1

Incoming: Write down the call the test reported for this molecule. Item: CN(C)c1ccc(SC#N)cc1
Outgoing: 1

Incoming: Write down the call the test reported for this molecule. Item: CCCCC(CC)CN=C(N)NC(N)=NCCCCCCN=C(N)NC(N)=NCC(CC)CCCC (stereo unspecified)
Outgoing: 1

Incoming: Write down the call the test reported for this molecule. Item: COc1cc(/C=C/C(=O)O[C@H]2CC[C@]34C[C@]35CC[C@]3(C)[C@@H]([C@H](C)CCC=C(C)C)CC[C@@]3(C)[C@@H]5CC[C@H]4C2(C)C)ccc1O
Outgoing: -1

Incoming: Write down the call the test reported for this molecule. Item: O=C(N/N=C/c1ccccc1O)c1ccncc1
Outgoing: -1

###

assay: qHTS assay to identify small molecule agonists of the RXR signaling pathway - cell viability counter screen (AID 1159529); details: RXR-alpha-bla HEK293T viability, CellTiter-Glo, 16 h; series mostly up to 76.8 µM; also: nearly all actives have a fitted effect of over 50% in size
Inconclusive results are not listed. Calls of active or inactive are those of the source. The call rests on the fitted dose curve; in most records, active means well fitted cell-killing curve with a large enough effect in the repeat runs; inconclusive means weak or mixed curves, or effect the other way; inactive means no such curve, though single readings can be large or run the other way.
Give one outcome, nothing more. List: TRUE (active), FALSE (inactive)

Example cases with answers are listed next.
CC(C)c1ccc2c(c1)CC[C@H]1[C@](C)(CN)CCC[C@]21C ... TRUE
CSc1ccc(C(=O)c2[nH]c(=O)[nH]c2C)cc1 ... FALSE
O=C1CCCc2c1cc1ccc3cccc4ccc2c1c34 ... FALSE

Incoming: Write down the call the test reported for this compound. Item: NNC(=O)c1cccc(C(=O)NN)c1
Outgoing: FALSE

Incoming: Write down the call the test reported for this compound. Item: CCCCCCCCCCCCCCCCCC[N+](C)(C)Cc1ccccc1
Outgoing: TRUE

Incoming: Write down the call the test reported for this compound. Item: O=Cc1cc(O)ccc1Br
Outgoing: FALSE

Incoming: Write down the call the test reported for this compound. Item: CCCCN(CCCC)C(=O)N(CCCC)CCCC
Outgoing: FALSE

Incoming: Write down the call the test reported for this compound. Item: CN(C)C(=O)C1(N2CCCCC2)CCN(CC[C@@]2(c3ccc(Cl)c(Cl)c3)CN(C(=O)c3ccccc3)CCO2)CC1
Outgoing: TRUE
